- study_system: equine FcRn (large alpha subunit p51) / equine beta-2-microglobulin complex, biotinylated (equine) (UniProt P30441)
- assay_procedure: SPR (Biacore), pH 6
recorded_metric: pKd
Units for pKd: none; it is -log10 of a concentration expressed in mol/L.

Per the record, equine IgG4 A426T (antibody, part only; not given: Variable domains, not shown: another chain or arm of the molecule) constant: ASTTAPKVFPLASHSAATSGSTVALGCLVSSYFPEPVTVSWNSGALTSGVHTFPSVLQSSGLYSLSSMVTVPASSLKSQTYICNVAHPASSTKVDKKIVIKECNGGCPAECLQVGPSVFIFPPKPKDVLMISRTPTVTCVVVDVGHDFPDVQFNWYVDGVETHTATTEPKQEQFNSTYRVVSVLPIQHKDWLSGKEFKCKVNNKALPAPVERTISKPTGQPREPQVYVLAPHRDELSKNKVSVTCLVKDFYPTDIDIEWKSNGQPEPETKYSTTPAQLDSDGSYFLYSKLTVETNRWQQGTTFTCTVMHEALHNHYTEKSVSKSPGK has pKd of 7.80
